assay: yeast display, Sf9 membrane polyspecificity reagent, FACS + sequencing; frameworks hold sequencing errors
QUANTITY_MEASURED: polyreactivity (PSR sort gate)

// known answers, use as guide
QVQLVESGGCLVQAGGSLRLSCAASGSTFAEYVMGWDRQAPGKERELVAAISSGTSTYYADSVKGRFTISRDNAKNTVYLQMNSLKPEDTAVYYCNADLYHNWYKPEYDYCGQGTQVTVSS low polyreactivity
QFQLVESGGGLVQAGGSLRISCAASGSIFRRYAMGWYRQAPWKERELVATISSGTTTNYADSVKGRFTISRDNANNSVYLQLNSLKPEDTSVFYCAAVVYGHIRGPGERKSYWGQGTQVTVSS high polyreactivity
QVQLVESGGGLVQAGGSLRLSCAASGRIFKYYGMGWYRQAPGKESELVAAITRGDSTNYADSVKGRFTISRDNAKNTVYLQMNSLKPEDTAVYYCNVGTRRGYDYWGQGTQVTVSS high polyreactivity
QVQLVESGGGLVQAGGSLRLSCAASGGIFWYYTMGWYRQAPGKERELVATLSSGGRTYYADSVKGRFTMSRDNAKNTVYLQMNSLKPEDTAVYYCAAVGWYHDYYWGQGTQVTVSS high polyreactivity

Consider the record given below.
Return reported polyreactivity (PSR sort gate); argument: `QVQLVESGGGLVQAGGSLRLSCAASGSTFHRYAMGWYRQAPGKERELVATINLNTGSTYADSVKGRFTISRDNAKNTVYLQMNSLKPEDTAVYYCAAYGRWPFTWYNYWGQGTQVTVSS`
low polyreactivity

###

assay: yeast display, Sf9 membrane polyspecificity reagent, FACS + sequencing; frameworks hold sequencing errors
QUANTITY_MEASURED: polyreactivity (PSR sort gate)

QVQLVESGAGLVQAGGSLRLSFAASGRTFVYNAMAWYRQAPGKERELVAAIDGGGDRTYYADSVKGRFTISRDNAKNTVYLQMNSLKPEDTAVYYCARDPGDTYYYSYPEGDYWGQGTLVTVSS low polyreactivity
QVQLVESGGGLVQAGGSLRLSCAASGRTFYSYAMGWYRQAPGKERELVATIRRGGRTNYADSVKGRFTISRDNAKNTVYLQMNSLKPEDTAVYYCAAEDYLSWVTSTYDYWGQGTQVAVSS low polyreactivity
QVQLVESGGCLVQAGGSLRLSCAASGSTFTIYVMGGYRQAPGKERELVAAITWSDGITYYADSVKGRFTISRDNAKNTVYLQMNSLKPEDTAVYYCRDSHPSYRPGTVRYDYWGQGTQVNVSS low polyreactivity

###

assay: yeast display, Sf9 membrane polyspecificity reagent, FACS + sequencing; frameworks hold sequencing errors
QUANTITY_MEASURED: polyreactivity (PSR sort gate)

QVQLVESGGCLVQAGGSLRLSCAASGSTFLKYTMGWYRQAPGKERELVAAITASGGRTYYADSVKGRFTISRDNAKITVYLQMNSLKPEDTAVYYCAARGFDRYYWGQGTQVTVSS high polyreactivity
QVQLVESGGGLVQAGGSLRLSCAASGFTFSYYAKGWYRQAPGKERELVARISFSGTRTYYADSVKGRFTISRDNAKKTVYLQMKSLKPEDTAVSYWARRPGAWKYVYSGDYWGQGTQVTVSS high polyreactivity
QVQLVESGGCLVQAGGSLRLSCAASGSTFLSYAMGWYRQAPGKERELVAAISYSAGSTYYADSVKGRFTISRDNAKNTVYLQMNSLKPEDTAVYYCAAYDYSERRYDYWGQGTQVTVSS low polyreactivity
QVQLVESVGGLVQAGGSLRLSCAASGRTFWYYSMGWDREAPGKERELVAAITSGGSTNYADSVKGRFTISRDNAKNTVYLQIYSLKPEDTAVYYCDTDNPVFEYYYWGQGTQVTVSS low polyreactivity
